# credit: ChEMBL document CHEMBL4229327

Target: C3a anaphylatoxin chemotactic receptor (Homo sapiens)
Sequence (Q16581 whole entry): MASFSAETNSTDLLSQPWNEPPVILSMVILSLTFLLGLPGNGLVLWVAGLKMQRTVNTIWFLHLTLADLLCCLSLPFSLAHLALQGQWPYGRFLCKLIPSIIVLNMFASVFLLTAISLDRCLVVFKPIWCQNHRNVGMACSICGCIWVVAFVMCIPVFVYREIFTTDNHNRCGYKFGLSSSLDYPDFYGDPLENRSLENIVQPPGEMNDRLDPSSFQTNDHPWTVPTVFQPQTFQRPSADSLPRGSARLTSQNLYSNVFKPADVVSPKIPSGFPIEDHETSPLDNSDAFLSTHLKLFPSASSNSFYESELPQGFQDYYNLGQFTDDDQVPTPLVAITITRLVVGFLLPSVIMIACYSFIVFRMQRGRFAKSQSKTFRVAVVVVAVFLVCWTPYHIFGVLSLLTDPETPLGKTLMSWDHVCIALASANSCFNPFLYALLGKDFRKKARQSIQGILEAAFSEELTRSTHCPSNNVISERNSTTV
Assay: Antagonist activity at C3aR in HMDM assessed as inhibition of agonist-induced Ca2+ release
Assay type: functional
Quantity Name: pIC50
// pIC50: -log10(molar conc.)

`N=C(N)NCCC[C@@H](C(=O)O)N1Cc2nc(C(c3ccccc3)c3ccccc3)sc2C1=O` has a reported pIC50 of 6.49

----------
Biological target: UniProtKB P21730
Sequence (P21730 whole entry): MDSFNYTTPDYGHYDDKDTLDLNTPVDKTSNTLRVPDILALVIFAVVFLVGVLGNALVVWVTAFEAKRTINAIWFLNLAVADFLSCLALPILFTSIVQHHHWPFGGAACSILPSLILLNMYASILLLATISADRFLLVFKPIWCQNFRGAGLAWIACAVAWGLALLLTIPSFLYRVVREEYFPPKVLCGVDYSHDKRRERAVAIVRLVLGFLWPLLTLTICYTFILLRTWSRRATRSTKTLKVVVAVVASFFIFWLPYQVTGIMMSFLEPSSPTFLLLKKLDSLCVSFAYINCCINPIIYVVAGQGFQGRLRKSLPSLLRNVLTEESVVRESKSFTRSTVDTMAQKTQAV
Test: Antagonist activity at recombinant human C5aR1 expressed in Sf9 insect cell membranes co-expressing G-alphai2,G-beta1 and G-gamma2 assessed as inhibition of recombinant human C5a-induced [35S]GTPgammaS binding after 60 mins by liquid scintillation spectrometry
Quantity Name: Ki

Record `C[C@@H](C(=O)N(Cc1ccccc1F)C1Cc2ccccc2C1)N1CCc2ccccc2[C@@H]1c1cccc2ccccc12` / UniProtKB P21730, Ki recorded as 15.2 nM
